- tested_target: T1, 4H909-AA
- T1 chain: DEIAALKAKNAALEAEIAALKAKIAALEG
- assay_method_text: two-hybrid library CCmax;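 note: natural log of median RNA to DNA barcode read ratio; higher means stronger binding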
- test_parameters: mean of both orientations
The label depends only on interaction score: true if it is at least -1, false if it is smaller.

>>> assigned_class("DENAALEAKIAALKAKIAALKAEIAALEG [4H1385-AA]")
"false"
>>> assigned_class("DENAALKAEIAALEAKIAALKAENAALEG [4H1579-AA]")
"false"
>>> assigned_class("DKIAALKAENAALEAKIAALEAKIAALEG [4H2725-AA]")
"true"
>>> assigned_class("DKNAALKAKIAALEAENAALKAEIAALEG [4H3865-AA]")
"false"
>>> assigned_class("DKNAALKAEIAALKAKNAALEAEIAALEG [4H3697-AA]")
"false"
>>> assigned_class("DEIAALKAKIAALEAENAALKAKIAALEG [4H797-AA]")
"true"
>>> assigned_class("DEIAALKAEIAALKAKNAALEAKIAALEG [4H629-AA]")
"false"
>>> assigned_class("DKNAALEAEIAALEAKNAALKAEIAALKG [4H3130-AA]")
"false"

Each recorded value in this set is attributed to paper PMC10397247.
